Cited source: PubChem BioAssay (EPA / NIEHS)

- Read-out: Interleukin 6 Receptor (IL6R), IL6R (gene 3570)
- assay-remarks: LTEA_HepaRG_IL6R: Life Technologies and Expression Analysis (LTEA) Assay for Interleukin 6 Receptor (IL6R) using HepaRG (AID 2283510)
- study-conditions: mRNA level, 48 h; actives raise or lower the signal
The source made the active and inactive calls. How the source made its calls: active means hit-call score of the fitted dose curve at least 0.9, where 1 is the maximum; inactive means score below 0.9.
Select the matching outcome among 1 (active), 0 (inactive)

Here are 8 molecules together with their reported answers.
1. COc1c(Cl)ccc(Cl)c1C(=O)O | 0
2. CCCCOC(=O)[C@@H](C)Oc1ccc(Oc2ccc(C(F)(F)F)cn2)cc1 | 0
3. CCCCOCCOCCOCc1cc2c(cc1CCC)OCO2 | 0
4. C#CCOC(=O)[C@@H](C)Oc1ccc(Oc2ncc(Cl)cc2F)cc1 | 0
5. CC1(C)C(C=C(Cl)Cl)C1C(=O)OCc1cccc(Oc2ccccc2)c1 (stereo unspecified) | 0
6. COC(=O)c1ccccc1C(=O)O | 0
7. CCCCOC(=O)C(C)Oc1ccc(Oc2ccc(C(F)(F)F)cn2)cc1 (stereo unspecified) | 0
8. CCOC(=O)C(C)Oc1ccc(Oc2nc3ccc(Cl)cc3o2)cc1 (stereo unspecified) | 0

Exercise: Per the assay record, what outcome was assigned to C=CCOC(Cn1ccnc1)c1ccc(Cl)cc1Cl (stereo unspecified) ?
Solution: 1

Exercise: Per the assay record, what outcome was assigned to O=C(c1ccc(O)cc1O)c1ccc(O)cc1O ?
Solution: 0

Exercise: Per the assay record, what outcome was assigned to c1ccc2[nH]c(-c3cscn3)nc2c1 ?
Solution: 0

Exercise: Per the assay record, what outcome was assigned to CCOC(=O)C(C)Oc1ccc(Oc2cnc3cc(Cl)ccc3n2)cc1 (stereo unspecified) ?
Solution: 0

Exercise: Per the assay record, what outcome was assigned to COC(=O)CSc1cc(N=c2sc(=O)n3n2CCCC3)c(F)cc1Cl ?
Solution: 0

Exercise: Per the assay record, what outcome was assigned to CCC(C)OC(=O)N1CCCCC1CCO (stereo unspecified) ?
Solution: 0

Exercise: Per the assay record, what outcome was assigned to CC(C)(c1ccc(O)cc1)c1ccc(O)cc1 ?
Solution: 0

Exercise: Per the assay record, what outcome was assigned to N[C@@H](Cc1cc(I)c(Oc2ccc(O)c(I)c2)c(I)c1)C(=O)O ?
Solution: 1

Exercise: Per the assay record, what outcome was assigned to OB(O)O ?
Solution: 0

Exercise: Per the assay record, what outcome was assigned to N#CSCSc1nc2ccccc2s1 ?
Solution: 1

Exercise: Per the assay record, what outcome was assigned to CCNc1nc(N)nc(Cl)n1 ?
Solution: 0

Exercise: Per the assay record, what outcome was assigned to O=C(O)C1(C(=O)Nc2ccc(Cl)cc2Cl)CC1 ?
Solution: 0

Exercise: Per the assay record, what outcome was assigned to O=C(Nc1ccc([N+](=O)[O-])cc1Cl)c1cc(Cl)ccc1O ?
Solution: 1

Exercise: Per the assay record, what outcome was assigned to CCCCC(CC)COC(=O)c1ccccc1C(=O)O (stereo unspecified) ?
Solution: 0

Exercise: Per the assay record, what outcome was assigned to CCN(CC)C(=O)c1cccc(C)c1 ?
Solution: 0

Exercise: Per the assay record, what outcome was assigned to Cc1nn(C)c(Oc2ccccc2)c1C=NOCc1ccc(C(=O)OC(C)(C)C)cc1 ?
Solution: 1

Exercise: Per the assay record, what outcome was assigned to COCCO ?
Solution: 0

Exercise: Per the assay record, what outcome was assigned to CC(=O)S[C@@H]1CC2=CC(=O)CC[C@]2(C)[C@H]2CC[C@@]3(C)[C@@H](CC[C@@]34CCC(=O)O4)[C@H]12 ?
Solution: 1

====

- Read-out: Interleukin-1 alpha (IL1a), IL1A (gene 3552)
- assay-remarks: BSK_KF3CT_IL1a: BioMAP Diversity Plus: KF3CT Assay for Interleukin-1 alpha (IL1a) Biomarker Activity (AID 2283070)
- study-conditions: primary human keratinocytes with fibroblasts; actives raise or lower the signal
Activity calls are given as the source filed them. Rule for the calls: active = hit-call score of the fitted dose curve at least 0.9, where 1 is the maximum; inactive = score below 0.9.
Select the matching outcome among t = active, f = inactive

Here are 4 molecules together with their reported answers.
1) CC(=O)S[C@@H]1CC2=CC(=O)CC[C@]2(C)[C@H]2CC[C@@]3(C)[C@@H](CC[C@@]34CCC(=O)O4)[C@H]12 | t
2) CCCOC(=O)c1ccc(C(=O)OCCC)nc1 | f
3) C#C[C@]1(O)CC[C@H]2[C@@H]3CCC4=CC(=O)CC[C@@H]4[C@H]3CC[C@@]21CC | f
4) CCCCCCC(C)OC(=O)COc1nc(F)c(Cl)c(N)c1Cl (stereo unspecified) | t

Exercise: Per the assay record, what outcome was assigned to CCCCOC(=O)[C@@H](C)Oc1ccc(Oc2ccc(C(F)(F)F)cn2)cc1 ?
Solution: f

Exercise: Per the assay record, what outcome was assigned to CCC(O)=C1C(=O)CC(C(=O)O)CC1=O (stereo unspecified) ?
Solution: f

Exercise: Per the assay record, what outcome was assigned to O=C(c1ccc(O)cc1O)c1ccc(O)cc1O ?
Solution: f

Exercise: Per the assay record, what outcome was assigned to COC(=O)c1cccc(C)c1S(=O)(=O)NC(=O)Nc1nc(OCC(F)(F)F)nc(N(C)C)n1 ?
Solution: f

Exercise: Per the assay record, what outcome was assigned to CCOC(=O)C(C)Oc1ccc(Oc2cnc3cc(Cl)ccc3n2)cc1 (stereo unspecified) ?
Solution: f

Exercise: Per the assay record, what outcome was assigned to CCN(Cc1c(F)cccc1Cl)c1c([N+](=O)[O-])cc(C(F)(F)F)cc1[N+](=O)[O-] ?
Solution: t

Exercise: Per the assay record, what outcome was assigned to c1ccc2[nH]c(-c3cscn3)nc2c1 ?
Solution: f

====

- Read-out: Intercellular Adhesion Molecule 1 (ICAM1), ICAM1 (gene 3383)
- assay-remarks: LTEA_HepaRG_ICAM1: Life Technologies and Expression Analysis (LTEA) Assay for Intercellular Adhesion Molecule 1 (ICAM1) using HepaRG (AID 2283507)
- study-conditions: mRNA level, 48 h; actives raise or lower the signal
Active and inactive are the calls of the source. The calls were made as follows: active = hit-call score of the fitted dose curve at least 0.9, where 1 is the maximum; inactive = score below 0.9.
Select the matching outcome among Y for active, N for inactive

1) CCOC(=O)C(C)Oc1ccc(Oc2nc3ccc(Cl)cc3o2)cc1 (configuration not stated) | N
2) CC(C)(c1ccc(O)cc1)c1ccc(O)cc1 | N
3) CCCCOC(=O)[C@@H](C)Oc1ccc(Oc2ccc(C(F)(F)F)cn2)cc1 | N
4) CCNc1nc(N)nc(Cl)n1 | N
5) C[C@]12C[C@H](O)[C@H]3[C@@H](CCC4=CC(=O)CC[C@@]43C)[C@@H]1CC[C@@H]2C(=O)CO | N

Exercise: Per the assay record, what outcome was assigned to O=C(O)c1ccccc1 ?
Solution: N

Exercise: Per the assay record, what outcome was assigned to CCOC(=O)C(C)Oc1ccc(Oc2cnc3cc(Cl)ccc3n2)cc1 (configuration not stated) ?
Solution: N

Exercise: Per the assay record, what outcome was assigned to S=C([S-])NCCNC(=S)[S-].[Mn+2] ?
Solution: Y

Exercise: Per the assay record, what outcome was assigned to CC1(C)C(C=C(Cl)Cl)C1C(=O)OCc1cccc(Oc2ccccc2)c1 (configuration not stated) ?
Solution: N

Exercise: Per the assay record, what outcome was assigned to CCCCC(CC)COC(=O)c1ccccc1C(=O)O (configuration not stated) ?
Solution: N

Exercise: Per the assay record, what outcome was assigned to COC(=O)c1ccccc1C(=O)O ?
Solution: N

Exercise: Per the assay record, what outcome was assigned to CCCOC(=O)c1ccc(C(=O)OCCC)nc1 ?
Solution: N

====

- Read-out: Thrombomodulin, THBD (gene 7056)
- assay-remarks: BSK_3C_Thrombomodulin: BioMAP Diversity Plus: 3C Assay for Thrombomodulin Biomarker Activity (AID 2283029)
- study-conditions: primary human endothelial cells (HUVEC); actives raise or lower the signal
Active and inactive are the calls of the source. The calls were made as follows: active = hit-call score of the fitted dose curve at least 0.9, where 1 is the maximum; inactive = score below 0.9.
Select the matching outcome among active, inactive

Here are 3 compounds together with their reported answers.
1) CCN(Cc1c(F)cccc1Cl)c1c([N+](=O)[O-])cc(C(F)(F)F)cc1[N+](=O)[O-] | inactive
2) CCCCOC(=O)[C@@H](C)Oc1ccc(Oc2ccc(C(F)(F)F)cn2)cc1 | inactive
3) N[C@@H](Cc1cc(I)c(Oc2ccc(O)c(I)c2)c(I)c1)C(=O)O | inactive

Exercise: Per the assay record, what outcome was assigned to CCOC(=O)NCCOc1ccc(Oc2ccccc2)cc1 ?
Solution: inactive

Exercise: Per the assay record, what outcome was assigned to S=C(S)NCCNC(=S)S.[Mn+2].[S-]C([S-])=NCCN=C([S-])[S-].[Zn+2] ?
Solution: inactive

Exercise: Per the assay record, what outcome was assigned to CCCN(CCC)C(=O)SCC ?
Solution: inactive

====

- assay-remarks: ATG_CMV_CIS: Attagene CIS-FACTORIAL HepG2 Assay for human CMV (Internal Marker) (AID 2282928);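 further: endpoint acts as a background internal control marker rather than a target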
- study-conditions: HepG2 CMV promoter reporter, transcription factor profiling; actives raise or lower the signal
The source made the active and inactive calls. The calls were made as follows: active = hit-call score of the fitted dose curve at least 0.9, where 1 is the maximum; inactive = score below 0.9.
Select the matching outcome among true (1) for active, false (0) for inactive

1. CCC(O)=C1C(=O)CC(C(=O)O)CC1=O (configuration not stated) | false (0)
2. C#C[C@]1(O)CC[C@H]2[C@@H]3CCC4=CC(=O)CC[C@@H]4[C@H]3CC[C@@]21CC | false (0)
3. O=C(c1ccc(O)cc1O)c1ccc(O)cc1O | true (1)

Exercise: Per the assay record, what outcome was assigned to CCC(C)OC(=O)N1CCCCC1CCO (configuration not stated) ?
Solution: false (0)

Exercise: Per the assay record, what outcome was assigned to c1ccc(Nc2ccccc2)cc1 ?
Solution: false (0)

Exercise: Per the assay record, what outcome was assigned to CCOC(=O)c1ccc(O)cc1 ?
Solution: false (0)

Exercise: Per the assay record, what outcome was assigned to CCCN(CCC)C(=O)SCC ?
Solution: false (0)

Exercise: Per the assay record, what outcome was assigned to CCCOC(=O)NCCCN(C)C ?
Solution: false (0)
